Origin of measurements: paper PMC9127501

Experiment: in vitro
Details: human
Metric Name: cytotoxicity at 6 days

For each of the compounds below, state cytotoxicity at 6 days.
1. C[C@H]1O[C@H](O[C@H]2[C@H](O)[C@@H](O)[C@@H](O[C@H]3[C@H](O)[C@@H](O)C(O)O[C@@H]3CO)O[C@@H]2CO)[C@H](O)[C@@H](O)[C@@H]1N[C@H]1C=C(CO)[C@@H](O)[C@H](O)[C@H]1O (stereo partly shown)
2. Cc1cccc(C)c1OCC(=O)N[C@@H](Cc1ccccc1)[C@@H](O)C[C@H](Cc1ccccc1)NC(=O)[C@H](C(C)C)N1CCCNC1=O
3. NC(=O)c1nc(F)c[nH]c1=O

Reply |
1. -15 to 7%
2. -9.6 to 99.9%
3. -8.1 to 67.5%

Ask | Give the measured cytotoxicity at 6 days of Cc1ccc(N)cc1C(=O)N[C@H](C)c1cccc2ccccc12 .
Reply | 6.2 to 76%
